molecular target: Ba/F3 HER2-YVMA cells (HER2-A775_G776insYVMA) (Homo sapiens, UniProt P04626, DUP772-775, cells depend on it); assay: Cell proliferation assay (CellTiter-Glo), Ba/F3 HER2-YVMA; type: cell-based; settings: read-out: Ba/F3 HER2-YVMA cell proliferation IC50
Sequence (P04626 with tags, fused parts or gaps DUP772-775): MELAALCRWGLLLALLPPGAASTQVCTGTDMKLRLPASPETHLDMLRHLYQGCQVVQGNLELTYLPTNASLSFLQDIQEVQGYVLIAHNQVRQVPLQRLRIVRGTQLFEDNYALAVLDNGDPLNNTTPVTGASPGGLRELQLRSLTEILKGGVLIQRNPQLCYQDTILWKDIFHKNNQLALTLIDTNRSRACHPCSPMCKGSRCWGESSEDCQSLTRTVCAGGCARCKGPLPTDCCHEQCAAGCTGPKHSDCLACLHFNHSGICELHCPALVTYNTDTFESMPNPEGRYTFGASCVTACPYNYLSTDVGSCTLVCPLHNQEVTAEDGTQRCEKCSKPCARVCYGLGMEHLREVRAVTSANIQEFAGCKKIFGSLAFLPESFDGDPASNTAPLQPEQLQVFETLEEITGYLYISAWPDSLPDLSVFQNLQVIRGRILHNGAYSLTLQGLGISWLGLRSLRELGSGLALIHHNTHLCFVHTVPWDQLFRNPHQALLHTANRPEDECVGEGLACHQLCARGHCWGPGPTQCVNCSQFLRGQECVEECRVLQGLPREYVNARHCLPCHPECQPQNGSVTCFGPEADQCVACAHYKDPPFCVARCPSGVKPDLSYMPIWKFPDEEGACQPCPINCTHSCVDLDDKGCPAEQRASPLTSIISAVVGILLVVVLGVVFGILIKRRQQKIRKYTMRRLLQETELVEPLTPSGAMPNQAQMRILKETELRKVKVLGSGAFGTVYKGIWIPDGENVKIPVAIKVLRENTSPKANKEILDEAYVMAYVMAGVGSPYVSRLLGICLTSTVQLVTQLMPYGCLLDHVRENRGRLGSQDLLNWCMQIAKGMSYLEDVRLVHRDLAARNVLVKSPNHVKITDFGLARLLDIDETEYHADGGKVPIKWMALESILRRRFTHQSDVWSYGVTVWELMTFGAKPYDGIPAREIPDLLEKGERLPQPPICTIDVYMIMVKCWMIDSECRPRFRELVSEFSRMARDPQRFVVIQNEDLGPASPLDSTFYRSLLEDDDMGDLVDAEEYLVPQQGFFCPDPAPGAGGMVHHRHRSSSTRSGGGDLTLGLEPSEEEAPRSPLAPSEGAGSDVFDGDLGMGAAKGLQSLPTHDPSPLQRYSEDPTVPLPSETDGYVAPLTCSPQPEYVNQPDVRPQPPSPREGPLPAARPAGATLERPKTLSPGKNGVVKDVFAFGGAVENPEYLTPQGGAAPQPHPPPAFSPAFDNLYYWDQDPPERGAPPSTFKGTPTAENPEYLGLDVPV
GI50 values by entry

| molecule | GI50 |
| --- | --- |
| C=CC(=O)N1CC2(C1)CN(c1ccc3ncnc(Nc4ccc(Oc5ccn6ncnc6c5)c(C)c4)c3n1)C2 | 0.5 to 1 µM |
| C=CC(=O)N1CCN(c2ncc3ncnc(Nc4cc(C)c(Oc5ccn6ncnc6c5)cc4F)c3n2)C[C@@H]1C | 0.1 to 0.5 µM |
| C=CC(=O)N1CCC(c2ncc3ncnc(Nc4ccc(Oc5cc(C)n6ncnc6c5)c(C)c4F)c3n2)=C[C@@H]1C | 0.1 to 0.5 µM |
| C=CC(=O)N1CCC(c2ccc3ncnc(Nc4ccc(Oc5ccn6ncnc6c5)c(C)c4)c3n2)C(C)C1 (stereo not shown) | 0.1 to 0.5 µM |
| C=CC(=O)N1CCN(c2ncc3ncnc(Nc4ccc(Oc5ccn6ncnc6c5)c(Cl)c4F)c3n2)C[C@H]1C | < 0.1 µM |
| C=CC(=O)N1CCC(c2ncc3ncnc(Nc4ccc(Oc5ccn6ncnc6c5)c(C)c4F)c3n2)=C[C@H]1C | < 0.1 µM |
| C=CC(=O)N1CC=C(c2ccc3ncnc(Nc4ccc(Oc5ccn6nccc6c5)c(C)c4)c3n2)CC1 | < 0.1 µM |
